Form field: Emax (one value per entry).
Biological target: recombinant human Meningioma Expressed Antigen 5 (MGEA5), also referred to as O-GlcNAcase (OGA) (Homo sapiens, UniProt O60502)
Construct: Full length OGA enzyme was purchased at OriGene (cat #TP322411); purchased OriGene TP322411
Assay: OGA biochemical assay (inhibition of FM-GlcNAc hydrolysis, fluorescence)
Conditions: full length OGA 2 nM, FM-GlcNAc 100 uM; relative to high and low controls; read-out: Enzymatic Emax (%)
Your answer should be a plain number; it is taken to be in %.

Cc1cc(Cl)cc(C(F)(F)F)c1Nc1nncc2c1ccn2CC(=O)N(C)C [Co. No. 4] | 100
Cc1ccnc(C(C)C)c1Nc1nncc2c1ccn2CC(=O)N(C)C [Co. No. 2] | 98

Task: Find the recorded Emax belonging to Cc1cc(C(F)(F)F)cc(C)c1Nc1nncc2c1ccn2CC(=O)N(C)C [Co. No. 1] and report it.
Output: 101

Task: Find the recorded Emax belonging to Cc1cc(C)c(Nc2nncc3c2ccn3CC(=O)N(C)C)c(C)c1 [Co. No. 5] and report it.
Output: 99

Task: Find the recorded Emax belonging to Cc1cc(OC(F)(F)F)cc(Cl)c1Nc1nncc2c1ccn2CC(=O)N(C)C [Co. No. 3] and report it.
Output: 101

====

Molecular target: hOGA (Homo sapiens)
Construct: HEK293 cells inducible for P301L mutant human Tau (isoform 2N4R) were established at Janssen; endogenous in cells; host or cells: HEK293 cells inducible for P301L mutant human Tau (2N4R)
Assay: OGA cellular assay (ICC detection of O-GlcNAcylated proteins in HEK293 cells inducible for P301L mutant human Tau)
Assay type: cell-based
Details: HEK293 cells inducible for P301L mutant human Tau (2N4R), 6 hours incubation, O-GlcNAcylation readout at 488 nm; read-out: Cellular hOGA; pEC50 (converted)
# note: boundary value 20 nM maps to N; EC50 below it maps to Y

The following molecules have reported results that may help.
Cc1cc(C)c(Nc2nncc3c2ccn3CC(=O)N(C)C)c(C)c1 | N
Cc1ccnc(C(C)C)c1Nc1nncc2c1ccn2CC(=O)N(C)C | N

Task: # strict comparison: is reported EC50 < 20 nM? input = Cc1cc(OC(F)(F)F)cc(Cl)c1Nc1nncc2c1ccn2CC(=O)N(C)C
Output: Y

Task: # strict comparison: is reported EC50 < 20 nM? input = Cc1cc(Cl)cc(C(F)(F)F)c1Nc1nncc2c1ccn2CC(=O)N(C)C
Output: N

Task: # strict comparison: is reported EC50 < 20 nM? input = Cc1cc(C(F)(F)F)cc(C)c1Nc1nncc2c1ccn2CC(=O)N(C)C
Output: N

====

Molecular target: hOGA (Homo sapiens, UniProt O60502)
Construct: HEK293 cells inducible for P301L mutant human Tau (isoform 2N4R) were established at Janssen; endogenous in cells; host or cells: HEK293 cells inducible for P301L mutant human Tau (2N4R)
Assay: OGA cellular assay (ICC detection of O-GlcNAcylated proteins in HEK293 cells inducible for P301L mutant human Tau)
Assay type: cell-based
Conditions: HEK293 cells inducible for P301L mutant human Tau; maximum defined by Thiamet G at 200 uM
Form field: Emax (one value per entry).
Your answer should be a plain number; it is taken to be in %.

Cc1ccnc(C(C)C)c1Nc1nncc2c1ccn2CC(=O)N(C)C [Co. No. 2] | 138
Cc1cc(OC(F)(F)F)cc(Cl)c1Nc1nncc2c1ccn2CC(=O)N(C)C [Co. No. 3] | 108
Cc1cc(C(F)(F)F)cc(C)c1Nc1nncc2c1ccn2CC(=O)N(C)C [Co. No. 1] | 68

Task: Find the recorded Emax belonging to Cc1cc(Cl)cc(C(F)(F)F)c1Nc1nncc2c1ccn2CC(=O)N(C)C [Co. No. 4] and report it.
Output: 63

Task: Find the recorded Emax belonging to Cc1cc(C)c(Nc2nncc3c2ccn3CC(=O)N(C)C)c(C)c1 [Co. No. 5] and report it.
Output: 92

====

Target: recombinant human Meningioma Expressed Antigen 5 (MGEA5), also referred to as O-GlcNAcase (OGA) (Homo sapiens)
Construct: Full length OGA enzyme was purchased at OriGene (cat #TP322411); purchased OriGene TP322411
Test: OGA biochemical assay (inhibition of FM-GlcNAc hydrolysis, fluorescence)
Details: full length OGA 2 nM, FM-GlcNAc 100 uM, pH 7.2, 6 h at room temperature; read-out: Enzymatic hOGA; pIC50 (converted)
Measured property: IC50 (µM)
Your answer should be a plain number; it is taken to be in µM.

Example results:
Cc1cc(C)c(Nc2nncc3c2ccn3CC(=O)N(C)C)c(C)c1 [Co. No. 5] | 0.00427
Cc1cc(Cl)cc(C(F)(F)F)c1Nc1nncc2c1ccn2CC(=O)N(C)C [Co. No. 4] | 0.0191
Cc1ccnc(C(C)C)c1Nc1nncc2c1ccn2CC(=O)N(C)C [Co. No. 2] | 0.0214
Cc1cc(OC(F)(F)F)cc(Cl)c1Nc1nncc2c1ccn2CC(=O)N(C)C [Co. No. 3] | 0.00631

Proceeding to the next molecule to report its IC50.
Task: Find the recorded IC50 belonging to Cc1cc(C(F)(F)F)cc(C)c1Nc1nncc2c1ccn2CC(=O)N(C)C [Co. No. 1] and report it.
Output: 0.0151

This collection of values is drawn from patent US20230058733A1.
